- Assay target: 5-HT2B (Homo sapiens, UniProt P41595)
- Sequence (P41595 whole entry): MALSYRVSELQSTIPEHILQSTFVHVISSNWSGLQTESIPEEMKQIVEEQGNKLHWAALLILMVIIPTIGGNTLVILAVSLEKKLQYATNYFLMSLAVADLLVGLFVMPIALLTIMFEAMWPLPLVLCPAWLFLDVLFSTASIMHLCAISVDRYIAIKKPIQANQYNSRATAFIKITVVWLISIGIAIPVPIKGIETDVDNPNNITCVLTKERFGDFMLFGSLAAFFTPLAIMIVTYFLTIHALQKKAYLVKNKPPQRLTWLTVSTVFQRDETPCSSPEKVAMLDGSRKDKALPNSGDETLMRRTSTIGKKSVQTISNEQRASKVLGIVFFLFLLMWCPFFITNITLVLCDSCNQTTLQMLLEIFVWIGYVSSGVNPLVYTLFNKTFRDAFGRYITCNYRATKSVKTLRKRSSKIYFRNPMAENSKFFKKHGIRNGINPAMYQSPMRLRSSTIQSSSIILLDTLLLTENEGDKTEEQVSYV
- Run description: Calcium flux agonist assay, 293T cells
- Assay type: cell-based
- Parameters: expressed in transfected cells; host or cells: Human Embryonic Kidney (293T) cells, transient
- Condition notes: calcium flux, in words

Compound	5-HT2B receptor activation
COc1cc(CCN)c(OC)cc1Br [Compound 2C-B, reference compound]	near maximal activation
COc1cc(CC(C)C)c(OC)cc1CCN [Compound 2C-iBu, reference compound]	near maximal activation

----------
- Assay target: 5-HT2C (h) (Homo sapiens)
- Sequence (P28335 33-458): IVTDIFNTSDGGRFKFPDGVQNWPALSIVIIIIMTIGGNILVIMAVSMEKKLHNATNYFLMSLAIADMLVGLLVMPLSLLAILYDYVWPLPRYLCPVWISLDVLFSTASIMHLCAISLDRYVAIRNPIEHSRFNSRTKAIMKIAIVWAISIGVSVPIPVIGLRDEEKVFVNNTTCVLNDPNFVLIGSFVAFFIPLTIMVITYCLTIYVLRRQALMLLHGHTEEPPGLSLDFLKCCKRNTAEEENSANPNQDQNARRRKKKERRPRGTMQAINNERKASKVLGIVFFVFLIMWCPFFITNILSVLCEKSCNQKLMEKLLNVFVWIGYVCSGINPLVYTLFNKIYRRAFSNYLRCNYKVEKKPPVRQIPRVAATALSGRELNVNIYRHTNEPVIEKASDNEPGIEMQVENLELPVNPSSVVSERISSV
Assay readout: IC50 (nM)
Please state the figure in nM; there is no need to write the unit.

-- ask Could you tell me which IC50 is on file for COCc1cc(CCN)c(OC)cc1CC(C)C ?
-- reply 14

----------
Measured Emax accompanies every entry in the list below.
- Assay target: 5-HT2B (Homo sapiens)
- Run description: Calcium flux agonist assay, 293T cells
- Format: cell-based
- Parameters: expressed in transfected cells; host or cells: Human Embryonic Kidney (293T) cells, transient
- Condition notes: HEK-293T; calcium flux, 5-HT2B; normalized to maximum 5-HT response
Please state the figure in %; there is no need to write the unit.

Some solved entries appear below for comparison.
Compound	Emax [%]
COCc1cc(CCN)c(O)cc1CC(C)C [2CiBu-2OH-5MM]	2.64
COCc1cc(CCN)c(OC)cc1CC(C)C [Compound 2CiBu-5MM]	45.7

-- ask # get_value(readout= Emax, system= 5-HT2B (Homo sapiens)) for COc1cc(CCN)c(OC)cc1Br [Compound 2C-B, reference compound]
-- reply 92.7

-- ask Moving on to COc1cc(CC(C)C)c(OC)cc1CCN [Compound 2C-iBu, reference compound]
-- reply 89.1

-- ask Moving on to COCc1cc(CCN)c(OC)cc1Br [Compound 2CB-5MM]
-- reply 94

----------
Measured Mean Percent Inhibition of Control Specific Binding accompanies every entry in the list below.
- Test system: Na^+ channel (site 2)
- Condition notes: Na+ channel (site 2) (antagonist radioligand); footnote: Sodium Channel Site2 (Non-selective) Rat Ion Channel Batrachotoxin Mass Spectr. Binding
Please state the figure in %; there is no need to write the unit.

Some solved entries appear below for comparison.
Compound	Assay target	Measured
COCc1cc(CCN)c(OC)cc1CC(C)C	Na^+ channel (site 2)	70.4
COCc1cc(CCN)c(O)cc1CC(C)C	Na^+ channel (site 2)	66
COCc1cc(CCN)c(OC)cc1Br	Na^+ channel (site 2)	21.6

Continue with the next compound.
-- ask Could you tell me which Mean Percent Inhibition of Control Specific Binding is on file for COCCc1cc(CCN)c(OC)cc1Br [Compound 2CB-5ME, reference compound] ?
-- reply 46.9

----------
- Assay target: 5-HT2A (h) (Homo sapiens)
- Sequence (P28223 whole entry, looked up): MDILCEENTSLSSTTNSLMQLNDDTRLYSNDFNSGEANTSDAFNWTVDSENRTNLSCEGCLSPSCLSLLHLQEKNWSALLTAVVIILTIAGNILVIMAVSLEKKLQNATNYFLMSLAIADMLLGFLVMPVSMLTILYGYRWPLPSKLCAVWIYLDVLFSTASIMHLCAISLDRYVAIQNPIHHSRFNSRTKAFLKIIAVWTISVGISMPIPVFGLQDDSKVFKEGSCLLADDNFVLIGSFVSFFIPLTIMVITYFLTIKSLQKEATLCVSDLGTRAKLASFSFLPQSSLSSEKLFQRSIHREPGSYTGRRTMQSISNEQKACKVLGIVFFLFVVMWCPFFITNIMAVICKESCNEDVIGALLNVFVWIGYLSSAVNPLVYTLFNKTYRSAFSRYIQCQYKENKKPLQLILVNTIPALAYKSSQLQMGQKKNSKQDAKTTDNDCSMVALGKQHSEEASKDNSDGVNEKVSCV
Assay readout: Ki (nM)
Please state the figure in nM; there is no need to write the unit.

-- ask Could you tell me which Ki is on file for COCc1cc(CCN)c(OC)cc1CC(C)C [Compound 2CiBu-5MM] ?
-- reply 43

----------
Measured Mean Percent Inhibition of Control Specific Binding accompanies every entry in the list below.
- Assay target: 5-HT transporter (h) (Homo sapiens, UniProt P31645)
- Construct: expressed in transfected cells; host or cells: CHO cells
- Sequence (P31645 whole entry): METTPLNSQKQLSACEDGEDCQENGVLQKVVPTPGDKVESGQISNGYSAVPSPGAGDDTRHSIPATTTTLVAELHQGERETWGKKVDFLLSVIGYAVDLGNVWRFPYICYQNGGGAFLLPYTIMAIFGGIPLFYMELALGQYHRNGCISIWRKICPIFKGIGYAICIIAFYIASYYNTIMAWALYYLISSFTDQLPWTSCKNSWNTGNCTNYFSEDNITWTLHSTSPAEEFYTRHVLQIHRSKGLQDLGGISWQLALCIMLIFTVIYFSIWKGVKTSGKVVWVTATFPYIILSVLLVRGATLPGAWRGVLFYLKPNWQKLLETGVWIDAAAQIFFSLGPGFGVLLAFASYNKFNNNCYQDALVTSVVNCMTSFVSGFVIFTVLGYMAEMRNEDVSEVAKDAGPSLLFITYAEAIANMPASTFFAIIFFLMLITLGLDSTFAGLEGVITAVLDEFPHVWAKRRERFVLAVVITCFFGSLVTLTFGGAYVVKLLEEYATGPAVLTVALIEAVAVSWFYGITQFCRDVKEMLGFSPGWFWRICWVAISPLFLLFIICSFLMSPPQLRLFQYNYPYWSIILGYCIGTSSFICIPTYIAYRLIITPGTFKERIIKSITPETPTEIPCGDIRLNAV
- Run description: Radioligand binding 5-HT transporter (h) (antagonist radioligand), [^3H]imipramine, CHO cells
Please state the figure in %; there is no need to write the unit.

Some solved entries appear below for comparison.
Compound	Assay target	Display unit	Measured
COCc1cc(CCN)c(O)cc1CC(C)C	5-HT transporter (h) (Homo sapiens, UniProt P31645)	%	15.0
COCc1cc(CCN)c(OC)cc1CC(C)C	5-HT transporter (h) (Homo sapiens, UniProt P31645)	%	4.9
COCc1cc(CCN)c(OC)cc1Br	5-HT transporter (h) (Homo sapiens, UniProt P31645)	%	−1.3

-- ask Could you tell me which Mean Percent Inhibition of Control Specific Binding is on file for COCCc1cc(CCN)c(OC)cc1Br [Compound 2CB-5ME, reference compound] ?
-- reply 8.6

----------
- Assay target: μ (MOP) (h) (Homo sapiens)
- Construct: expressed in transfected cells; host or cells: HEK-293 cells
- Sequence (P35372 whole entry): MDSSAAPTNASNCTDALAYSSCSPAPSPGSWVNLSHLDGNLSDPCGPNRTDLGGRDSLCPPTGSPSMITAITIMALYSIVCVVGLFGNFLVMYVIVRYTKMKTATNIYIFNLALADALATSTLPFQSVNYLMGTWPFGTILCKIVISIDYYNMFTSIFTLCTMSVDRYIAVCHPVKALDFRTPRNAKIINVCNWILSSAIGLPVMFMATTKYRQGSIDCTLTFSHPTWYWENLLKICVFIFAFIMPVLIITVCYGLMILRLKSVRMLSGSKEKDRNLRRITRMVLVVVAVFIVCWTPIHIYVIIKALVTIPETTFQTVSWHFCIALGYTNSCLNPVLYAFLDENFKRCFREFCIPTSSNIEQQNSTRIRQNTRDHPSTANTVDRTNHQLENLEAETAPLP
- Run description: Radioligand binding μ (MOP) (h) (agonist radioligand), [^3H]DAMGO, HEK-293 cells
- Protocol: Methods—Binding Assays: In vitro binding assays were performed using human recombinant receptors expressed in mammalian cell lines. […] All assays were conducted in triplicate, and specific binding was quantified by scintillation counting as the detection method for each listed assay. Specific binding was expressed as a percentage of control-specific binding, and percent inhibition was calculated using the formula in Ex. 8 above. […]
Assay readout: Mean Percent Inhibition of Control Specific Binding (%)
Please state the figure in %; there is no need to write the unit.

Molecule	Display unit	Measured
COCc1cc(CCN)c(OC)cc1CC(C)C	%	31.5
COCc1cc(CCN)c(OC)cc1Br	%	31.1
COCc1cc(CCN)c(O)cc1CC(C)C	%	24.4

-- ask Could you tell me which Mean Percent Inhibition of Control Specific Binding is on file for COCCc1cc(CCN)c(OC)cc1Br [Compound 2CB-5ME, reference compound] ?
-- reply 28.6

----------
- Tested on: Ca^2+ channel (L, dihydropyridine site)
- Run description: Radioligand binding Ca^2+ channel (L, dihydropyridine site) (antagonist radioligand), [^3H]nitrendipine, rat cerebral cortex
Assay readout: Mean Percent Inhibition of Control Specific Binding (%)
Please state the figure in %; there is no need to write the unit.

Some solved entries appear below for comparison.
Molecule	Assay target	Display unit	Measured
COCCc1cc(CCN)c(OC)cc1Br [Compound 2CB-5ME, reference compound]	Ca^2+ channel (L, dihydropyridine site)	%	0.2
COCc1cc(CCN)c(OC)cc1CC(C)C	Ca^2+ channel (L, dihydropyridine site)	%	−4.6
COCc1cc(CCN)c(O)cc1CC(C)C	Ca^2+ channel (L, dihydropyridine site)	%	8.4

Continue with the next molecule.
-- ask Could you tell me which Mean Percent Inhibition of Control Specific Binding is on file for COCc1cc(CCN)c(OC)cc1Br ?
-- reply 2.7

----------
- Assay target: PDE3A(h) (Homo sapiens, UniProt Q14432)
- Construct: host or cells: Sf21 cells
- Sequence (Q14432 whole entry): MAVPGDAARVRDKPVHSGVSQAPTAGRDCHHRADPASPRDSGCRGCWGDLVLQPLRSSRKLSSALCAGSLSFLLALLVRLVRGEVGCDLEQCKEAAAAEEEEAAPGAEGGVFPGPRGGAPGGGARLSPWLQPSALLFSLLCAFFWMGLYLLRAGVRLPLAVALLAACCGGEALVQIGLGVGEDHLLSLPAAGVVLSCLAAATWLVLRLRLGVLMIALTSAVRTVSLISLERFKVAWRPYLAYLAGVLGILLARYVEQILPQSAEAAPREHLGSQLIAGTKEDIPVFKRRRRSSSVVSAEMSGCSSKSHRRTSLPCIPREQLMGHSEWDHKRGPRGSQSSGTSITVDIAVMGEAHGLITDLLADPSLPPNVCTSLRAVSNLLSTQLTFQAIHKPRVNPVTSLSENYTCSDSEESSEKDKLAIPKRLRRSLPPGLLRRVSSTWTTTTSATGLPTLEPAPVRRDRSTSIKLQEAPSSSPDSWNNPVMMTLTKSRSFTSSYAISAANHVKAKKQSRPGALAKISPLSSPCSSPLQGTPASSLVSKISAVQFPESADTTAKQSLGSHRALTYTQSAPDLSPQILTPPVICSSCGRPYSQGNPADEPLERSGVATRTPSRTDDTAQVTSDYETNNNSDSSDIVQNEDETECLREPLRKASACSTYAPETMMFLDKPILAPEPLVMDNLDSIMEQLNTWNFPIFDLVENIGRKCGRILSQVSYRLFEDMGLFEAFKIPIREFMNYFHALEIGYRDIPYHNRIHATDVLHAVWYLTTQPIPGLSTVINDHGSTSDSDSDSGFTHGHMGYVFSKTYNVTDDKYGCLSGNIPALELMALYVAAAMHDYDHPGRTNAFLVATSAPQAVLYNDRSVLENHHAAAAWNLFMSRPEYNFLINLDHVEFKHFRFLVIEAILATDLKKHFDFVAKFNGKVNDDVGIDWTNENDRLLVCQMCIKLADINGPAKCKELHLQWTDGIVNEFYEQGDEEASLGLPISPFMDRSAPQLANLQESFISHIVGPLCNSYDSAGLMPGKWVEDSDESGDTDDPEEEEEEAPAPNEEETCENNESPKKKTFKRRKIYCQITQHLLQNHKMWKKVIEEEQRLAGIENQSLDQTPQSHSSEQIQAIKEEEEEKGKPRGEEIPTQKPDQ
- Run description: Enzyme assay PDE3A(h), [3H]cAMP, scintillation counting
- Format: biochemical
Measured Mean Percent Inhibition of Control Specific Binding accompanies every entry in the list below.
Please state the figure in %; there is no need to write the unit.

Compound	Display unit	Measured
COCc1cc(CCN)c(OC)cc1CC(C)C [Compound 2CiBu-5MM]	%	8.2

-- ask Could you tell me which Mean Percent Inhibition of Control Specific Binding is on file for COCc1cc(CCN)c(OC)cc1Br [Compound 2CB-5MM] ?
-- reply 14.5

-- ask Moving on to COCCc1cc(CCN)c(OC)cc1Br [Compound 2CB-5ME, reference compound]
-- reply −4.6

-- ask Moving on to COCc1cc(CCN)c(O)cc1CC(C)C [2CiBu-2OH-5MM]
-- reply 35.1

----------
- Assay target: COX2(h) (Homo sapiens, UniProt P35354)
- Construct: host or cells: Sf9 cells
- Sequence (P35354 18-604): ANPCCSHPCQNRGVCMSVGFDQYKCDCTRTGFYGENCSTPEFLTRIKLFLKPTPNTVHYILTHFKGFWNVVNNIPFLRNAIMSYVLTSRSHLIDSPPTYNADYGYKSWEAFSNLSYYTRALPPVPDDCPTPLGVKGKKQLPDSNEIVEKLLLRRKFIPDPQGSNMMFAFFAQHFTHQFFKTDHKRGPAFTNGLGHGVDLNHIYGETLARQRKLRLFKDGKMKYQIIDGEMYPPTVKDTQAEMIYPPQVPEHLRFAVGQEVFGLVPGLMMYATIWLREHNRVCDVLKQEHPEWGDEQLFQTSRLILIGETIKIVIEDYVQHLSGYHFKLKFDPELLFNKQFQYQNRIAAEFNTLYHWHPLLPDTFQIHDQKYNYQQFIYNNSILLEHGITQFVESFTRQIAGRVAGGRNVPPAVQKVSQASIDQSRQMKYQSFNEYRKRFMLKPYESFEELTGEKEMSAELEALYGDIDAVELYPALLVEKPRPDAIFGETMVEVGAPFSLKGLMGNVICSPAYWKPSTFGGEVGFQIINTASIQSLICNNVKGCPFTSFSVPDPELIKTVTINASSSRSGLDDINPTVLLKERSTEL
- Run description: Enzyme assay COX2(h), arachidonic acid + ADHP, fluorimetry
- Assay type: biochemical
Measured Mean Percent Inhibition of Control Specific Binding accompanies every entry in the list below.
Please state the figure in %; there is no need to write the unit.

Some solved entries appear below for comparison.
Molecule	Display unit	Measured
COCc1cc(CCN)c(OC)cc1CC(C)C	%	−7.0
COCCc1cc(CCN)c(OC)cc1Br [Compound 2CB-5ME, reference compound]	%	−10.4
COCc1cc(CCN)c(OC)cc1Br	%	−8.0

-- ask Could you tell me which Mean Percent Inhibition of Control Specific Binding is on file for COCc1cc(CCN)c(O)cc1CC(C)C ?
-- reply 10.2

----------
- Assay target: GR (h) (Homo sapiens)
- Construct: human endog; endogenous in cells; host or cells: IM-9 cells
- Sequence (P04150 1-777): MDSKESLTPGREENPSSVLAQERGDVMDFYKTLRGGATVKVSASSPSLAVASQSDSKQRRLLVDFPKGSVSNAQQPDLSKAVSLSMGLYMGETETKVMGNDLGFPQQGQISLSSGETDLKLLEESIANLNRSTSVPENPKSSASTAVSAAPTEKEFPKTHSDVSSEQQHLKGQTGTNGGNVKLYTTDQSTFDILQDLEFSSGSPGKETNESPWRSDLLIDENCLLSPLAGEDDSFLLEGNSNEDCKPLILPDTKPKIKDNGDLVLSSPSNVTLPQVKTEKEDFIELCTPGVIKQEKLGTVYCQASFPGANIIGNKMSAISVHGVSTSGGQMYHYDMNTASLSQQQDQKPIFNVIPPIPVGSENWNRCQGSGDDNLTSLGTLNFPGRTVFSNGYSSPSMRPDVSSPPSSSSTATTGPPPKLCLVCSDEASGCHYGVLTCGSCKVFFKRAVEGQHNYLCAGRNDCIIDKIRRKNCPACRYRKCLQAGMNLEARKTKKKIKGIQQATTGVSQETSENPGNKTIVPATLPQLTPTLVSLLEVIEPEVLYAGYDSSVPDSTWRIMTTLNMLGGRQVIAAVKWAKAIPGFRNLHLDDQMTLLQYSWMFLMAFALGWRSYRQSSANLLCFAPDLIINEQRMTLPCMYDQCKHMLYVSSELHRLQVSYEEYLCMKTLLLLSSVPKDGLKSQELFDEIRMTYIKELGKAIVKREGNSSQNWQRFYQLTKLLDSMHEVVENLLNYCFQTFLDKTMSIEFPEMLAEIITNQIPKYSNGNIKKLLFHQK
- Run description: Radioligand binding GR (h) (agonist radioligand), [^3H]dexamethasone, IM-9 cells
Assay readout: Mean Percent Inhibition of Control Specific Binding (%)
Please state the figure in %; there is no need to write the unit.

Some solved entries appear below for comparison.
Molecule	Measured
COCCc1cc(CCN)c(OC)cc1Br [Compound 2CB-5ME, reference compound]	−0.5
COCc1cc(CCN)c(OC)cc1CC(C)C [Compound 2CiBu-5MM]	−3.9
COCc1cc(CCN)c(OC)cc1Br [Compound 2CB-5MM]	−7.2

-- ask Could you tell me which Mean Percent Inhibition of Control Specific Binding is on file for COCc1cc(CCN)c(O)cc1CC(C)C [2CiBu-2OH-5MM] ?
-- reply −3.1
